System: U-251
ASSAY REMARKS: Growth inhibition of human U251 cells assessed as cell growth at 10^-6 M incubated for 48 hrs by sulforhodamine B assay
Format: functional
MEASUREMENT CONTEXT: U-251, 48 h, read-out: Activity

[
  {
    "INPUT SMILES": "c1ccc2[nH]c(-c3ccc(Nc4nc(N5CCCCC5)nc(N5CCOCC5)n4)cc3)nc2c1",
    "growth at 1 µM, %": 76
  },
  {
    "INPUT SMILES": "Clc1ccc(-c2nc(Nc3ccc(-c4nc5ccccc5[nH]4)cc3)nc(N3CCOCC3)n2)cc1",
    "growth at 1 µM, %": -56
  },
  {
    "INPUT SMILES": "c1ccc(-c2nc(Nc3ccc(-c4nc5ccccc5[nH]4)cc3)nc(N3CCOCC3)n2)cc1",
    "growth at 1 µM, %": 28
  },
  {
    "INPUT SMILES": "Fc1ccc(-c2nc(Nc3ccc(-c4nc5ccccc5[nH]4)cc3)nc(N3CCOCC3)n2)cc1",
    "growth at 1 µM, %": 70
  }
]

----------
ASSAY REMARKS: Growth inhibition of human SW620 cells incubated for 48 hrs by sulforhodamine B assay
Format: functional
MEASUREMENT CONTEXT: SW-620, 48 h, read-out: LC50 (the source's name)

[
  {
    "INPUT SMILES": "Fc1ccc(-c2nc(Nc3ccc(-c4nc5ccccc5[nH]4)cc3)nc(N3CCOCC3)n2)cc1",
    "READOUT UNIT": "µM",
    "VALUE MODIFIER": ">",
    "CC50": 100
  },
  {
    "INPUT SMILES": "c1ccc2[nH]c(-c3ccc(Nc4nc(N5CCCCC5)nc(N5CCOCC5)n4)cc3)nc2c1",
    "READOUT UNIT": "µM",
    "VALUE MODIFIER": "=",
    "CC50": 74.7
  },
  {
    "INPUT SMILES": "Clc1ccc(-c2nc(Nc3ccc(-c4nc5ccccc5[nH]4)cc3)nc(N3CCOCC3)n2)cc1",
    "READOUT UNIT": "µM",
    "VALUE MODIFIER": "=",
    "CC50": 0.742
  },
  {
    "INPUT SMILES": "c1ccc(-c2nc(Nc3ccc(-c4nc5ccccc5[nH]4)cc3)nc(N3CCOCC3)n2)cc1",
    "READOUT UNIT": "µM",
    "VALUE MODIFIER": "=",
    "CC50": 5.82
  }
]

----------
Tested on: SK-MEL-5
ASSAY REMARKS: Growth inhibition of human SK-MEL-5 cells incubated for 48 hrs by sulforhodamine B assay
Assay type: functional
MEASUREMENT CONTEXT: SK-MEL-5, 48 h, read-out: LC50 (the source's name)

[
  {
    "INPUT SMILES": "c1ccc2[nH]c(-c3ccc(Nc4nc(N5CCCCC5)nc(N5CCOCC5)n4)cc3)nc2c1",
    "CC50 (µM)": 6.11
  },
  {
    "INPUT SMILES": "c1ccc(-c2nc(Nc3ccc(-c4nc5ccccc5[nH]4)cc3)nc(N3CCOCC3)n2)cc1",
    "CC50 (µM)": 5.9
  },
  {
    "INPUT SMILES": "Fc1ccc(-c2nc(Nc3ccc(-c4nc5ccccc5[nH]4)cc3)nc(N3CCOCC3)n2)cc1",
    "CC50 (µM)": 6.28
  },
  {
    "INPUT SMILES": "Clc1ccc(-c2nc(Nc3ccc(-c4nc5ccccc5[nH]4)cc3)nc(N3CCOCC3)n2)cc1",
    "CC50 (µM)": 5.79
  }
]

----------
ASSAY REMARKS: Growth inhibition of human DU145 cells assessed as cell growth at 10^-8 M incubated for 48 hrs by sulforhodamine B assay
Type: functional
MEASUREMENT CONTEXT: DU-145, 48 h, read-out: Activity
Recorded growth at 0.01 µM, one value per entry.

[
  {
    "INPUT SMILES": "Clc1ccc(-c2nc(Nc3ccc(-c4nc5ccccc5[nH]4)cc3)nc(N3CCOCC3)n2)cc1",
    "READOUT UNIT": "%",
    "growth at 0.01 µM": 101
  },
  {
    "INPUT SMILES": "Fc1ccc(-c2nc(Nc3ccc(-c4nc5ccccc5[nH]4)cc3)nc(N3CCOCC3)n2)cc1",
    "READOUT UNIT": "%",
    "growth at 0.01 µM": 101
  },
  {
    "INPUT SMILES": "c1ccc(-c2nc(Nc3ccc(-c4nc5ccccc5[nH]4)cc3)nc(N3CCOCC3)n2)cc1",
    "READOUT UNIT": "%",
    "growth at 0.01 µM": 99
  },
  {
    "INPUT SMILES": "c1ccc2[nH]c(-c3ccc(Nc4nc(N5CCCCC5)nc(N5CCOCC5)n4)cc3)nc2c1",
    "READOUT UNIT": "%",
    "growth at 0.01 µM": 102
  }
]

----------
System: MDA-MB-231
ASSAY REMARKS: Growth inhibition of human MDA-MB-231 cells assessed as cell growth at 10^-7 M incubated for 48 hrs by sulforhodamine B assay
Assay type: functional
MEASUREMENT CONTEXT: MDA-MB-231, 48 h, read-out: Activity
Recorded growth at 0.1 µM, one value per entry.
QUANTITY: growth at 0.1 µM (%)

[
  {
    "INPUT SMILES": "Clc1ccc(-c2nc(Nc3ccc(-c4nc5ccccc5[nH]4)cc3)nc(N3CCOCC3)n2)cc1",
    "STUDY TARGET": "MDA-MB-231",
    "QUANTITY": "growth at 0.1 µM",
    "MEASUREMENT": 92
  },
  {
    "INPUT SMILES": "c1ccc(-c2nc(Nc3ccc(-c4nc5ccccc5[nH]4)cc3)nc(N3CCOCC3)n2)cc1",
    "STUDY TARGET": "MDA-MB-231",
    "QUANTITY": "growth at 0.1 µM",
    "MEASUREMENT": 86
  },
  {
    "INPUT SMILES": "c1ccc2[nH]c(-c3ccc(Nc4nc(N5CCCCC5)nc(N5CCOCC5)n4)cc3)nc2c1",
    "STUDY TARGET": "MDA-MB-231",
    "QUANTITY": "growth at 0.1 µM",
    "MEASUREMENT": 98
  },
  {
    "INPUT SMILES": "Fc1ccc(-c2nc(Nc3ccc(-c4nc5ccccc5[nH]4)cc3)nc(N3CCOCC3)n2)cc1",
    "STUDY TARGET": "MDA-MB-231",
    "QUANTITY": "growth at 0.1 µM",
    "MEASUREMENT": 86
  }
]

----------
ASSAY REMARKS: Growth inhibition of human HCT15 cells assessed as cell growth at 10^-5 M incubated for 48 hrs by sulforhodamine B assay
Format: functional
MEASUREMENT CONTEXT: HCT-15, 48 h, read-out: Activity

[
  {
    "INPUT SMILES": "c1ccc(-c2nc(Nc3ccc(-c4nc5ccccc5[nH]4)cc3)nc(N3CCOCC3)n2)cc1",
    "READOUT UNIT": "%",
    "growth at 10 µM": -58
  },
  {
    "INPUT SMILES": "Fc1ccc(-c2nc(Nc3ccc(-c4nc5ccccc5[nH]4)cc3)nc(N3CCOCC3)n2)cc1",
    "READOUT UNIT": "%",
    "growth at 10 µM": -35
  },
  {
    "INPUT SMILES": "Clc1ccc(-c2nc(Nc3ccc(-c4nc5ccccc5[nH]4)cc3)nc(N3CCOCC3)n2)cc1",
    "READOUT UNIT": "%",
    "growth at 10 µM": -76
  },
  {
    "INPUT SMILES": "c1ccc2[nH]c(-c3ccc(Nc4nc(N5CCCCC5)nc(N5CCOCC5)n4)cc3)nc2c1",
    "READOUT UNIT": "%",
    "growth at 10 µM": -49
  }
]

----------
ASSAY REMARKS: Growth inhibition of human OVCAR4 cells assessed as cell growth at 10^-5 M incubated for 48 hrs by sulforhodamine B assay
Format: functional
MEASUREMENT CONTEXT: OVCAR-4, 48 h, read-out: Activity
Recorded growth at 10 µM, one value per entry.

[
  {
    "INPUT SMILES": "Fc1ccc(-c2nc(Nc3ccc(-c4nc5ccccc5[nH]4)cc3)nc(N3CCOCC3)n2)cc1",
    "growth at 10 µM": "3%"
  },
  {
    "INPUT SMILES": "Clc1ccc(-c2nc(Nc3ccc(-c4nc5ccccc5[nH]4)cc3)nc(N3CCOCC3)n2)cc1",
    "growth at 10 µM": "-86%"
  },
  {
    "INPUT SMILES": "c1ccc(-c2nc(Nc3ccc(-c4nc5ccccc5[nH]4)cc3)nc(N3CCOCC3)n2)cc1",
    "growth at 10 µM": "-97%"
  },
  {
    "INPUT SMILES": "c1ccc2[nH]c(-c3ccc(Nc4nc(N5CCCCC5)nc(N5CCOCC5)n4)cc3)nc2c1",
    "growth at 10 µM": "22%"
  }
]
